Data provenance is ChEMBL document CHEMBL5257025.

- Test system: A549
- assay-procedure: cells
- recorded-conditions: Homo sapiens, A549, 48 h
pIC50: −log10 of the molar value.
reported-metric: pIC50

{"columns": ["compound", "reported-metric", "assay-value"],
 "data": [
  ["C[C@@H]1CC[C@H]2[C@@H](C)C(OCCN/C(=N/c3ccc(Cl)cc3Cl)NCCOC3O[C@@H]4O[C@]5(C)CC[C@@H]6[C@@H](C)CC[C@H]([C@@H]3C)[C@]46OO5)O[C@H]3O[C@@]4(C)CC[C@@H]1[C@]32OO4 (stereo not given in full)", "pIC50", 6.19],
  ["C[C@@H]1CC[C@H]2[C@@H](C)C(OCCN/C(=N/c3cccc(Br)c3)NCCOC3O[C@@H]4O[C@]5(C)CC[C@@H]6[C@@H](C)CC[C@H]([C@@H]3C)[C@]46OO5)O[C@H]3O[C@@]4(C)CC[C@@H]1[C@]32OO4 (stereo not given in full)", "pIC50", 6.44],
  ["C[C@@H]1CC[C@H]2[C@@H](C)C(OCCN/C(=N/c3ccc(OC(F)(F)F)cc3)NCCOC3O[C@@H]4O[C@]5(C)CC[C@@H]6[C@@H](C)CC[C@H]([C@@H]3C)[C@]46OO5)O[C@H]3O[C@@]4(C)CC[C@@H]1[C@]32OO4 (stereo not given in full)", "pIC50", 6.77],
  ["C[C@@H]1CC[C@H]2[C@@H](C)C(OCCN/C(=N/c3cccc(Cl)c3)NCCOC3O[C@@H]4O[C@]5(C)CC[C@@H]6[C@@H](C)CC[C@H]([C@@H]3C)[C@]46OO5)O[C@H]3O[C@@]4(C)CC[C@@H]1[C@]32OO4 (stereo not given in full)", "pIC50", 6.14],
  ["C[C@@H]1CC[C@H]2[C@@H](C)C(OCCN/C(=N/c3cc(C(F)(F)F)ccc3F)NCCOC3O[C@@H]4O[C@]5(C)CC[C@@H]6[C@@H](C)CC[C@H]([C@@H]3C)[C@]46OO5)O[C@H]3O[C@@]4(C)CC[C@@H]1[C@]32OO4 (stereo not given in full)", "pIC50", 6.62]
]}

----------
- System: P388
- assay-procedure: Antiproliferative activity against mouse P388 cells assessed as cell growth inhibition incubated for 72 hrs by MTT assay
- Type: functional, cell-based
- recorded-conditions: P388, 72 h
pIC50: −log10 of the molar value.

{"columns": ["compound", "pIC50"],
 "data": [
  ["C[C@@H]1CC[C@H]2[C@@H](C)C(CCS(=O)(=O)CCC3O[C@@H]4O[C@]5(C)CC[C@@H]6[C@@H](C)CC[C@H]([C@@H]3C)[C@]46OO5)O[C@H]3O[C@@]4(C)CC[C@@H]1[C@]32OO4 (stereo partly drawn)", 5.07],
  ["C[C@@H]1CC[C@H]2[C@@H](C)C(CCS(=O)(=O)CCCS(=O)(=O)CCC3O[C@@H]4O[C@]5(C)CC[C@@H]6[C@@H](C)CC[C@H]([C@@H]3C)[C@]46OO5)O[C@H]3O[C@@]4(C)CC[C@@H]1[C@]32OO4 (stereo partly drawn)", 4.96],
  ["C[C@@H]1CC[C@H]2[C@@H](C)C(CCNC(=O)CCC(N)C(=O)NCCC3O[C@H]4O[C@@]5(C)CC[C@H]6[C@H](C)CC[C@@H]([C@H]3C)[C@@]46OO5)O[C@H]3O[C@@]4(C)CC[C@@H]1[C@]32OO4 (stereo partly drawn)", 4.67]
]}

----------
- assay-procedure: Cytotoxicity against African green monkey Vero cells
- Assay type: toxicity, cell-based
- recorded-conditions: chlorocebus sabaeus, read-out: TC50 (the source's name)
// values below are reported CC50

{"columns": ["compound", "unit-tag", "readout-qualifier", "CC50"],
 "data": [
  ["CCN(CC)CCCC(C)Nc1ccnc2cc(Cl)ccc12 (stereo not given) [CHLOROQUINE]", "nM", ">", 14900],
  ["C[C@@H]1CC[C@H]2[C@H](C[C@]3(Cc4ccc(F)cc4)O[C@H]4O[C@@]5(C)CC[C@H]6[C@H](C)CC[C@@H]([C@H]3C)[C@@]46OO5)C(=O)O[C@H]3O[C@@]4(C)CC[C@@H]1[C@]32OO4", "nM", "=", 1100],
  ["CCCC[C@@]1(C[C@@H]2C(=O)O[C@H]3O[C@@]4(C)CC[C@H]5[C@H](C)CC[C@@H]2[C@@]35OO4)O[C@H]2O[C@@]3(C)CC[C@H]4[C@H](C)CC[C@@H]([C@H]1C)[C@@]24OO3", "nM", ">", 130000],
  ["CCC[C@@]1(C[C@@H]2C(=O)O[C@H]3O[C@@]4(C)CC[C@H]5[C@H](C)CC[C@@H]2[C@@]35OO4)O[C@H]2O[C@@]3(C)CC[C@H]4[C@H](C)CC[C@@H]([C@H]1C)[C@@]24OO3", "nM", ">", 130000],
  ["CCCCCC[C@@]1(C[C@@H]2C(=O)O[C@H]3O[C@@]4(C)CC[C@H]5[C@H](C)CC[C@@H]2[C@@]35OO4)O[C@H]2O[C@@]3(C)CC[C@H]4[C@H](C)CC[C@@H]([C@H]1C)[C@@]24OO3", "nM", "=", 2500]
]}

----------
- Test system: Plasmodium falciparum
- assay-procedure: Antimalarial activity against Plasmodium falciparum 3D7 assessed as inhibition of malarial growth
- Assay type: functional, organism-based
pIC50: −log10 of the molar value.
reported-metric: pIC50

{"columns": ["molecule", "assay-value"],
 "data": [
  ["C[C@@H]1CC[C@H]2[C@@H](C)C(OCCC(CCCNc3ccnc4ccc(Cl)cc34)CCOC3O[C@@H]4O[C@]5(C)CC[C@@H]6[C@@H](C)CC[C@H]([C@@H]3C)[C@]46OO5)O[C@H]3O[C@@]4(C)CC[C@@H]1[C@]32OO4 (stereo partly drawn)", 8.06],
  ["C[C@H]1[C@@H](O)O[C@H]2O[C@@]3(C)CC[C@H]4[C@H](C)CC[C@@H]1[C@@]24OO3", 8.68],
  ["C[C@@H]1CC[C@H]2[C@@H](C)C(OCCCN3CC[N+](CCCOC4O[C@@H]5O[C@]6(C)CC[C@@H]7[C@@H](C)CC[C@H]([C@@H]4C)[C@]57OO6)(CCNc4ccnc5cc(Cl)ccc45)CC3)O[C@H]3O[C@@]4(C)CC[C@@H]1[C@]32OO4 (stereo partly drawn)", 7.53]
]}

----------
- System: HL-60
- assay-procedure: Antiproliferative activity against human HL-60 cells assessed as cell growth inhibition measured after 48 hrs by SRB assay
- Assay type: functional, cell-based
- recorded-conditions: HL-60, 48 h
pIC50: −log10 of the molar value.
reported-metric: pIC50

{"columns": ["line-notation", "test-system", "reported-metric", "assay-value"],
 "data": [
  ["C[C@@H]1CC[C@H]2[C@@H](C)C(=O)O[C@@H]3O[C@@]4(C)CC[C@@H]1[C@]32OO4", "HL-60", "pIC50", 4.40]
]}

----------
- Tested on: MCF7
- assay-procedure: Antiproliferative activity against human MCF7 cells assessed as reduction in cell viability measured after 48 hrs by SRB assay
- Assay type: functional, cell-based
- recorded-conditions: MCF7, 48 h
reported-metric: IC50 (nM)

{"columns": ["molecule", "reported-metric", "unit-tag", "readout-qualifier", "assay-value"],
 "data": [
  ["C[C@@H]1CC[C@H]2[C@@H](C)C(CCS(=O)(=O)CCCS(=O)(=O)CCC3O[C@@H]4O[C@]5(C)CC[C@@H]6[C@@H](C)CC[C@H]([C@@H]3C)[C@]46OO5)O[C@H]3O[C@@]4(C)CC[C@@H]1[C@]32OO4 (stereo partly specified)", "IC50", "nM", "=", 7360],
  ["C[C@H]1[C@@H](CCNC(=O)CC[C@H]2O[C@H]3O[C@@]4(C)CC[C@H]5[C@H](C)CC[C@@H]([C@H]2C)[C@@]35OO4)O[C@H]2O[C@@]3(C)CC[C@H]4[C@H](C)CC[C@@H]1[C@@]24OO3", "IC50", "nM", "=", 8],
  ["C[C@@H]1CC[C@H]2[C@@H](C)C(CCNC(=O)CCC(N)C(=O)NCCC3O[C@H]4O[C@@]5(C)CC[C@H]6[C@H](C)CC[C@@H]([C@H]3C)[C@@]46OO5)O[C@H]3O[C@@]4(C)CC[C@@H]1[C@]32OO4 (stereo partly specified)", "IC50", "nM", "=", 20900],
  ["C[C@@H]1CC[C@H]2[C@@H](C)C(OCC(COC3O[C@H]4O[C@@]5(C)CC[C@H]6[C@H](C)CC[C@@H]([C@H]3C)[C@@]46OO5)=NO)O[C@H]3O[C@@]4(C)CC[C@@H]1[C@]32OO4 (stereo partly specified)", "IC50", "nM", "=", 60],
  ["C[C@H]1[C@@H](CCCCNC(=O)CC[C@H]2O[C@H]3O[C@@]4(C)CC[C@H]5[C@H](C)CC[C@@H]([C@H]2C)[C@@]35OO4)O[C@H]2O[C@@]3(C)CC[C@H]4[C@H](C)CC[C@@H]1[C@@]24OO3", "IC50", "nM", ">", 30200],
  ["C[C@@H]1CC[C@H]2[C@@H](C)C(CCS(=O)(=O)CCC3O[C@@H]4O[C@]5(C)CC[C@@H]6[C@@H](C)CC[C@H]([C@@H]3C)[C@]46OO5)O[C@H]3O[C@@]4(C)CC[C@@H]1[C@]32OO4 (stereo partly specified)", "IC50", "nM", "=", 40],
  ["COc1cc([C@@H]2c3cc4c(cc3[C@@H](O[C@@H]3O[C@@H]5CO[C@@H](C)O[C@H]5[C@H](O)[C@H]3O)[C@H]3COC(=O)[C@H]23)OCO4)cc(OC)c1O [ETOPOSIDE]", "IC50", "nM", "=", 830],
  ["C[C@@H]1CC[C@H]2[C@@H](C)C(CCSCCC3O[C@@H]4O[C@]5(C)CC[C@@H]6[C@@H](C)CC[C@H]([C@@H]3C)[C@]46OO5)O[C@H]3O[C@@]4(C)CC[C@@H]1[C@]32OO4 (stereo partly specified)", "IC50", "nM", "=", 30],
  ["C[C@@H]1CC[C@H]2[C@@H](C)C(OCC(COC3O[C@H]4O[C@@]5(C)CC[C@H]6[C@H](C)CC[C@@H]([C@H]3C)[C@@]46OO5)OC(=O)CCC(=O)O)O[C@H]3O[C@@]4(C)CC[C@@H]1[C@]32OO4 (stereo partly specified)", "IC50", "nM", "=", 200],
  ["CC(=O)O[C@H]1C(=O)[C@@]2(C)[C@H]([C@H](OC(=O)c3ccccc3)[C@]3(O)C[C@H](OC(=O)[C@H](O)[C@@H](NC(=O)c4ccccc4)c4ccccc4)C(C)=C1C3(C)C)[C@]1(OC(C)=O)CO[C@@H]1C[C@@H]2O", "IC50", "nM", "=", 0.1],
  ["CO[C@@]12[C@H](COC(N)=O)C3=C(C(=O)C(C)=C(N)C3=O)N1C[C@@H]1N[C@@H]12", "IC50", "nM", "=", 60]
]}
